The values you see were collected from ChEMBL document CHEMBL1146052.

- Test Description: Volume of distribution in mouse at 5 mg/kg, po and 2 mg/kg, iv
- Format: ADME, organism-based
- Measurement Conditions: in vivo, read-out: Vdss
Measured Endpoint: Vd (L/kg)
Answers are plain numbers, in L/kg.

Task item: // query Vd value for entry COc1cc(OC2CCN(C)CC2)c2c(Nc3ccc(F)c(Cl)c3)ncnc2c1
Reply: 8.2

###

- Test Description: Percent of unbound ligand in mouse plasma at 5 mg/kg, po and 2 mg/kg, iv
- Type: ADME, organism-based
Measured Endpoint: fraction unbound

Task item: Data request, read-out fraction unbound, for COc1cc(OC2CCN(C)CC2)c2c(Nc3ccc(F)c(Cl)c3)ncnc2c1
Reply: 0.0311

###

- Test Description: Plasma clearance in rat at 5 mg/kg, po and 2 mg/kg, iv
- Assay type: ADME, organism-based
Measured Endpoint: clearance (mL/min/kg)
One number for each entry, in mL/min/kg.

Task item: clearance lookup needed for COc1cc(OC2CCN(C)CC2)c2c(Nc3ccc(F)c(Cl)c3)ncnc2c1 , thanks.
Reply: 66

###

- Test Description: Half life in mouse at 5 mg/kg, po and 2 mg/kg, iv
- Assay type: ADME, organism-based
- Measurement Conditions: in vivo
Measured Endpoint: half-life (h)
One number for each entry, in h.

Task item: Entry under review: COc1cc(OC2CCN(C)CC2)c2c(Nc3ccc(F)c(Cl)c3)ncnc2c1 . Reported half-life?
Reply: 5.2
